Please respond with reported Population Healthy Nuclei (%) for every item in the list.
Test system: Fibroblast
experiment.description: Multiplex assay against human fibroblast
Assay type: toxicity, cell-based
assay.context: 24 h, 1 µM, compound concentration 1 uM, replicate 1
Answer with a number only, understood to be in %.

Name the reported Population Healthy Nuclei (%) value associated with the compound CCC(=O)O[C@]1(C(=O)SCF)[C@H](C)C[C@H]2[C@@H]3C[C@H](F)C4=CC(=O)C=C[C@]4(C)[C@@]3(F)[C@@H](O)C[C@@]21C [FLUTICASONE PROPIONATE]
62

Then Cc1cc2c(cc1N1C(=O)c3cccc4c(CCCO)ccc(c34)C1=O)n(C)c(=O)n2C ?
55

Then O=C(O)c1ccc2cc(-c3ccc(O)c(C45CC6CC(CC(C6)C4)C5)c3)ccc2c1 ?
20

Then Cl.Cl.NC1(c2ccc(-c3nc4ccn5c(=O)[nH]nc5c4cc3-c3ccccc3)cc2)CCC1 ?
51

###

Please respond with reported Population Normal (%) for every item in the list.
Test system: U2OS
experiment.description: Multiplex assay against U2OS
Assay type: toxicity, cell-based
assay.context: human, 12 h, 10 µM, compound concentration 10 uM, replicate 1
Answer with a number only, understood to be in %.

Name the reported Population Normal (%) value associated with the molecule CC(C)(C)c1cnc(CSc2cnc(NC(=O)C3CCNCC3)s2)o1
96

Then CCOc1cc(N2CCC(O)CC2)ccc1Nc1ncc2c(n1)N(C1CCCC1)CCC(=O)N2C ?
98

Then CN(C)CCOc1ccc(-c2nc(-c3ccncc3)c(-c3ccc4c(c3)CC/C4=N\O)[nH]2)cc1 ?
96

Then CC(C)N1CCC(C)(C)c2cc(C#Cc3ccc(C(=O)O)cc3)ccc21 ?
45

Then Cl.Cl.Nc1ncnc2c1c(-c1cccc(OCc3ccccc3)c1)cn2[C@H]1C[C@@H](CN2CCC2)C1 ?
90

###

Please respond with reported Population Normal (%) for every item in the list.
System: HEK-293T
experiment.description: Multiplex assay against HEK293T
Assay type: toxicity, cell-based
assay.context: human, 12 h, 1 µM, compound concentration 1 uM, replicate 1
Answer with a number only, understood to be in %.

Name the reported Population Normal (%) value associated with the compound CNC(=O)c1nn(C)c2c1C(C)(C)Cc1cnc(Nc3ccc(N4CCN(C)CC4)cc3)nc1-2
78

Then CC(C)Oc1ccc(C(=O)N[C@H](CNC(=O)CN(C)C)Cc2ccc(-c3cn4cccc([C@H](C)O)c4n3)cc2)cc1Cl [GSK-923295A] ?
91

Then CC(C)N1CCC(C)(C)c2cc(C#Cc3ccc(C(=O)O)cc3)ccc21 ?
82

Then CCOc1cc(N2CCC(O)CC2)ccc1Nc1ncc2c(n1)N(C1CCCC1)CCC(=O)N2C ?
86

Then CCc1cc2c(cc1CC)CC(NC[C@H](O)c1ccc(O)c3[nH]c(=O)ccc13)C2 ?
83

Then Nc1ccc(C(=O)Nc2cccc(-c3nc(N4CCOCC4)c4oc5ncccc5c4n3)c2)cn1 ?
80

Then CC(C)(C)c1cnc(CSc2cnc(NC(=O)C3CCNCC3)s2)o1 ?
80

Then COc1cc(N2CCC(N(C)C)CC2)ccc1Nc1ncc(Cl)c(Nc2ccccc2P(C)(C)=O)n1 ?
85

###

Tested on: Fibroblast
experiment.description: Multiplex assay against human fibroblast
Type: toxicity, cell-based
assay.context: 24 h, 1 µM, compound concentration 1 uM, replicate 1
Please respond with reported Total Cell Count for every item in the list.
Answer as a number with no unit attached.

Name the reported Total Cell Count value associated with the compound Cl.Cl.NC1(c2ccc(-c3nc4ccn5c(=O)[nH]nc5c4cc3-c3ccccc3)cc2)CCC1
428

Then N#Cc1cnc(Nc2cc(NC[C@H]3CNCCO3)c(C(F)(F)F)cn2)cn1 ?
205

Then CC(C)Oc1ccc(C(=O)N[C@H](CNC(=O)CN(C)C)Cc2ccc(-c3cn4cccc([C@H](C)O)c4n3)cc2)cc1Cl [GSK-923295A] ?
266

Then CNC(=O)c1nn(C)c2c1C(C)(C)Cc1cnc(Nc3ccc(N4CCN(C)CC4)cc3)nc1-2 ?
224
